Every entry's value here was drawn from PubChem BioAssay (NCI).

Entries and their growth
Test system: OVCAR-8 ovarian
Measurement Description: NCI-60 one-dose screen, 48 h (100 = growth as untreated, 0 = no growth, -100 = all killed)
Condition Details: 10 µM
This is part of a sample that, as a whole, favours compounds with a hit. Of some 83,000 tested, about 20% had one in any assay.
The answer is to be given in %; state only the numeric part.

Answered examples (5):
Compound	Endpoint Unit	Experimental Result
COc1ccc2c(c1)sc1nc(-c3ccccc3)c(-c3ccc(O)c(OC)c3)n12	%	97.5
Clc1ccc(Nc2ccnc(NCCNc3ccnc4cc(Cl)ccc34)n2)cc1	%	16.9
COc1cc2nc(Nc3cccc(C(=O)O)c3)nc(N)c2cc1OC	%	105
C/C(N)=C(\C#N)C(=O)c1ccccc1	%	103
O=C(Nc1nc(-c2ccccc2Cl)cs1)c1cc(-c2ccc(Cl)cc2)nc2ccc(Cl)cc12	%	1.38

growth for CCCCCCCCCCCCCCCCN(C(C)c1ccccc1)S(=O)(=O)c1ccc(OC)c(N)c1 (stereo unspecified) is 104

Recorded result, `COc1ccc(-c2cc(-c3ccc(N(C)C)cc3)c(C#N)c(N3CCCC3)n2)cc1` , growth: 83.3

Record `CN(C)c1ccc(/C=C/C=N/NC(=O)c2cc(O)c(O)c(O)c2)cc1` . Reported growth: 89.3
